Test system: Erythrocyte
EXPERIMENTAL_DETAILS: Hemolytic activity in human red blood cells assessed as induction of hemoglobin release incubated for 4 hrs by microplate reader based assay
Format: cell-based
# HC10 values compiled below

SUBSTANCE | VALUE_PREFIX | HC10 / µM
Ac-LKKLLKPLKKLLKL-NH2 | = | 160
Ac-LKKLPKLSKKLLKL-NH2 | = | 80
Ac-LKKLLPLLKKLLKL-NH2 | = | 1.25
H-LKKLLKLLKKPLKL-NH2 | = | 320
Ac-KLLKLLKKLLKLLK-NH2 | = | 0.625
Ac-KLPKLLKKLLKLLK-NH2 | = | 10
Ac-LKKPLKLGKKLLKL-NH2 | = | 160
Ac-KPLKLLKKLLKLLK-NH2 | = | 5
Ac-KLLKLLKKPLKLLK-NH2 | > | 1280
Ac-KLLKLLKKLLKPLK-NH2 | = | 40
Ac-LKKLLKLLKKLPKL-NH2 | = | 40
Ac-LKKLLKLLKPLLKL-NH2 | = | 5
Ac-KLLKLLKKLPKLLK-NH2 | = | 80
Ac-KLLKLLKKLLKLPK-NH2 | = | 40
Ac-LKKLLKLLKKLLKL-NH2 | = | 5
Ac-KLLKPLKKLLKLLK-NH2 | = | 80
